- SYSTEM: PTP domain of SHP2 fused to GST (Homo sapiens, UniProt Q06124)
- Sequence (Q06124 247-517 limits assumed): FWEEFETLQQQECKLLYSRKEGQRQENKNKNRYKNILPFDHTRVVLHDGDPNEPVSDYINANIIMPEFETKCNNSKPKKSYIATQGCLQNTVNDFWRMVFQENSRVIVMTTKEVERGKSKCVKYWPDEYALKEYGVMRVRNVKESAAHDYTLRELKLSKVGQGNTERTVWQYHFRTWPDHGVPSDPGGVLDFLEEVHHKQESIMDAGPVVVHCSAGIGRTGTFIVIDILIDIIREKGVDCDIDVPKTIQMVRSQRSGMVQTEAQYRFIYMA
QUANTITY_NAME: pIC50
Here pIC50 is given on a logarithmic scale as minus log10 of the concentration in mol/L.

### Prompt So what does the record say about pIC50 for CCCCCCCCCOc1c(CCCC(=O)O)cc(-c2ccc(C(=O)O)cc2)cc1CCCC(=O)O ?
### Response 4.92
